Documented Inhibition across a set of compounds
# Tested on: Escherichia coli
# procedure_summary: Antibacterial activity against Escherichia coli ATCC 25922 (CO-ADD:GN_001); MIC in CAMBH media using NBS plates, by Resazurin F(560/590)
# Type: functional
# run_parameters: Concentration 20 uM, ASSAY_TEST Inhibition of Bacterial Growth, detection method Resazurin, Fluorescence (ex560/em590), MEDIA CAMHB, plate type 384well, CORNING #3640, time 18 hr
measurement_kind: Inhibition

- compound: "O=C(Nc1ccc(F)cc1)OCCOc1ccc([N+](=O)[O-])cc1"
  reading: "-7.06%"
- compound: "CC(=O)NCC(O)c1ccc([N+](=O)[O-])cc1 (configuration not stated)"
  reading: "7.49%"
- compound: "Cc1nc(S)nc(O)c1CCC1OCCO1"
  reading: "10.14%"
- compound: "S=C(Nc1ccccc1)Nc1nccs1"
  reading: "-3.08%"
- compound: "CC(C)(C)NC(=O)c1ccc(C(=O)NC(C)(C)C)cc1"
  reading: "2.15%"
- compound: "CC1=CC(=O)Nc2cncnc2N1"
  reading: "8.98%"
- compound: "CC1CO/C(=C2\\C(=O)OCC2C)C1 (configuration not stated)"
  reading: "10.92%"
- compound: "Oc1nccc(SCc2ccc(Cl)cc2Cl)n1"
  reading: "5.78%"
- compound: "Cc1oc2c(c(C)nn2-c2ccccc2)c(=O)c1Cl"
  reading: "7.16%"
- compound: "[O-][n+]1ccc(CC(O)(C(F)(F)F)C(F)(F)F)cc1"
  reading: "-11.83%"
- compound: "COC1OC(O)C(NC(=O)C(F)(F)F)CC1O (configuration not stated)"
  reading: "5.88%"
- compound: "COc1ccccc1N1C(=O)CC(Sc2ccccc2N)C1=O (configuration not stated)"
  reading: "10.06%"
- compound: "O=P(O)(O)c1cc(-c2ccccc2)oc1-c1ccccc1"
  reading: "13.72%"
- compound: "CCOC(=O)C(=O)Cc1nc2ccccc2s1"
  reading: "10.05%"
- compound: "NC(=O)c1nnsc1-c1ccc(-c2snnc2C(N)=O)cc1"
  reading: "9.34%"
- compound: "CC(OC(=O)Nc1cccc(Cl)c1)C(=O)O (configuration not stated)"
  reading: "16.3%"
- compound: "Cc1ccc(S(=O)(=O)N2CC=C(N)N2)cc1"
  reading: "9.9%"
- compound: "CC(C)n1cc(C#N)c(N)n1"
  reading: "18.87%"
- compound: "N#CC1=CC2CN(Cc3ccccc3)C1C1C(=O)N(c3ccccc3)C(=O)C21 (configuration not stated)"
  reading: "-13.61%"
- compound: "CC12CCC(C(NC(=S)NN)C1=O)C2(C)C (configuration not stated)"
  reading: "7.86%"
- compound: "O=C(O)/C=C\\C(=O)Nc1nccs1"
  reading: "4.99%"
- compound: "O=C(CCl)NC1(C(=O)O)CCCC1"
  reading: "-6.53%"
- compound: "O=C1c2ccccc2C(=Cc2cccnc2)c2ccccc21"
  reading: "6.86%"
- compound: "COC(=O)Cc1[nH]c(O)nc1C(=O)OC"
  reading: "3.06%"
- compound: "CC1(C)CC(Nc2ccc(Nc3ccccc3)cc2)CC(C)(C)N1"
  reading: "-3.22%"
- compound: "COc1c(C=O)c2c(c(OC)c1OC)-c1ccc(OC)c(=O)cc1[C@@H](NC(C)=O)CC2"
  reading: "15.89%"
- compound: "Cc1cnc2c(N)cc(C)c(C)c2c1"
  reading: "9.48%"
- compound: "NNC(=O)CNc1cccc(Br)c1"
  reading: "7.55%"
- compound: "Clc1nnc2c3ccccc3ccn12"
  reading: "3.3%"
- compound: "Cc1csc(NC(=O)c2ccc(C(=O)Nc3nc(C)cs3)cc2)n1"
  reading: "2.37%"
- compound: "S=C1SCN(CCc2ccccc2)CN1CCc1ccccc1"
  reading: "3.19%"
- compound: "CC1=Nc2ccccc2/C1=C\\c1c(C)[nH]c2ccccc12"
  reading: "0.88%"
- compound: "Cc1ccc(C)c(C(=O)CCC(=O)O)c1"
  reading: "0.68%"
- compound: "COc1cc(C(=O)c2cocc2C(=O)c2ccc3c(c2)OCO3)cc(OC)c1OC"
  reading: "12.62%"
- compound: "CC(=O)[C@H]1CC[C@H]2[C@@H]3CCC4=CC(=O)CC[C@]4(C)[C@@]3(F)[C@@H](O)C[C@]12C"
  reading: "9.76%"
- compound: "c1ccc(Sc2ncccn2)nc1"
  reading: "7.64%"
- compound: "O=C(O)c1ccccc1-c1ccccc1C(=O)Nc1ccc2oc(=O)c3ccccc3c2c1"
  reading: "-0.87%"
- compound: "Oc1ccc(N/C(S)=N/c2ccccc2)cc1"
  reading: "-4.05%"
- compound: "O=C1c2ccccc2C2=C3C(O)=NN=C3CCN12"
  reading: "4.79%"
- compound: "Oc1cc(-c2nn[nH]n2)nc(O)n1"
  reading: "13.37%"
- compound: "c1ccc(NCCSc2nc3ccccc3s2)cc1"
  reading: "10.16%"
- compound: "CC(=O)Nc1ccc(OC(=O)Oc2ccc(NC(C)=O)cc2)cc1"
  reading: "7.78%"
- compound: "Cc1nc2ccnn2c(O)c1CCc1ccccc1"
  reading: "1.1%"
- compound: "CCC(C)NC(=O)CC(C)C (configuration not stated)"
  reading: "19.94%"
- compound: "Nc1nc2c[nH]c(N)nc-2n1"
  reading: "5.84%"
- compound: "Cn1c(=O)c2c(nc(Cc3ccc(N)cc3)n2C)n(C)c1=O"
  reading: "1.69%"
- compound: "Nc1nc2cc([N+](=O)[O-])ccc2[nH]1"
  reading: "3.91%"
- compound: "O=C(Nc1ccc(NC(=O)c2ccncc2)cc1)c1ccncc1"
  reading: "8.24%"
- compound: "O=C1Cc2cccc(O)c(=O)c2C(=O)O1"
  reading: "9.09%"
- compound: "CCn1c2ccccc2c2cc(NC(=O)Nc3ccc([N+](=O)[O-])cc3C)ccc21"
  reading: "6.19%"
- compound: "Cc1nn(-c2ccccc2)c2c1C(c1ccc([N+](=O)[O-])cc1)C(C#N)=C(N)O2 (configuration not stated)"
  reading: "1.25%"
- compound: "O=C(c1cccnc1)N1CCN(c2ccccc2Cl)CC1"
  reading: "10.26%"
